Biological target: T1, human CD112R on Jurkat CD112R effector cells (human, UniProt Q6DKI7 1-326)
T1 sequence (looked up): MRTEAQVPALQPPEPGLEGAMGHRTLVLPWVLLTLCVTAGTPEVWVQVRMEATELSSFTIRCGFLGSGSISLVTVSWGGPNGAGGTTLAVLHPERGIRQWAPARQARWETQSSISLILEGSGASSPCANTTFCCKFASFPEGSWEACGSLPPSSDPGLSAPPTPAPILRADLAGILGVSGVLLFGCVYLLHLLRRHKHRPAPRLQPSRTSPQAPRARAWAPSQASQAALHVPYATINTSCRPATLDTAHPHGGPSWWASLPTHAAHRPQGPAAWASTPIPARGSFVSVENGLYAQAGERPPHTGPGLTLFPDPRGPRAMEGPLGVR
Assay: cell-based or functional assay
Known Relative activity (%), EC50 COM701/EC50 antibody of a selection of binders
Respond numerically; units are % and should not be typed.

INSERT INTO measurements (binder, observed_measurement) VALUES
  ('Hu53 (antibody, IgG4, V domains shown, humanized IgG4) VH: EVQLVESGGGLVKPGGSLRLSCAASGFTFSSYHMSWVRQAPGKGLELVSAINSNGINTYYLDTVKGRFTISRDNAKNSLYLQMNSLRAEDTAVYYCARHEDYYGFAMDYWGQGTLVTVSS VL: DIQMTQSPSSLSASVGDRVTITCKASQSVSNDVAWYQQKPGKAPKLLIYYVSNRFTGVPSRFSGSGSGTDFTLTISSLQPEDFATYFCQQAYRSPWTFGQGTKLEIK', 314),
  ('Hu17 (antibody, IgG4, V domains shown, humanized IgG4) VH: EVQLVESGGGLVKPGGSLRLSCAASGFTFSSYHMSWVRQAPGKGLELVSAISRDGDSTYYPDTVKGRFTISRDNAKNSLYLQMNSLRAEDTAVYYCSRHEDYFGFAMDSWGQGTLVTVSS VL: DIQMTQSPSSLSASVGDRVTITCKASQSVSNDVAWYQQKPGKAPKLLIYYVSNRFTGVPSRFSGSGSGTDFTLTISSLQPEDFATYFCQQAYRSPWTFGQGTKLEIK', 241),
  ('Hu28 (antibody, IgG4, V domains shown, humanized IgG4) VH: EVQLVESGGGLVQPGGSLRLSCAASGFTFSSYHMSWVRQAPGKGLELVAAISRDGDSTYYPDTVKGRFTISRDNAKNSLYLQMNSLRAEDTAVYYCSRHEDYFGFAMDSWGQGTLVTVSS VL: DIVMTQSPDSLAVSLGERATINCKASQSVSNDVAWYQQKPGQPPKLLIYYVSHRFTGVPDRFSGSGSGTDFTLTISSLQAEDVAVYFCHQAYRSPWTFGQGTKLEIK', 232),
  ('Hu29 (antibody, IgG4, V domains shown, humanized IgG4) VH: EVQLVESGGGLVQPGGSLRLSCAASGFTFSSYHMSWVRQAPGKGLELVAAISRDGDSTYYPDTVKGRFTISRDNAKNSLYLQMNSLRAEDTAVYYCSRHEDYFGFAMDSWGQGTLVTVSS VL: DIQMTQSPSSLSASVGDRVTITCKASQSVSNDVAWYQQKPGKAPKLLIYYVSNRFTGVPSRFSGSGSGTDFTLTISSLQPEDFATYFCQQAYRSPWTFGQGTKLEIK', 230);

Let us examine a further case.
Look up Relative activity (%), EC50 COM701/EC50 antibody of Hu9 (antibody, IgG4, V domains shown, humanized IgG4; also called Hu-09) VH: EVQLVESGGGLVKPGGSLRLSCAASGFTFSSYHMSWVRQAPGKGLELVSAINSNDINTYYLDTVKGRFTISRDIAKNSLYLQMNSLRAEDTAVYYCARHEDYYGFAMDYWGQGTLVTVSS VL: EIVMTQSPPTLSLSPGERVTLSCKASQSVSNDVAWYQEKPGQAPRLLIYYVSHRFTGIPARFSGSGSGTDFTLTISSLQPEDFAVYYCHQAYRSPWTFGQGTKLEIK and report it.
195
